test: melting temperature; fluorescence melt of hairpins on a sequencing array, two-state fit, raised by 9.35 °C to match UV melts; details: sodium 0.088 M
reported-metric: Tm (°C)
Report only the number, with the unit °C understood.

GATCGCACACGCGATC ((((((....)))))); 68.2
GCCTGGGGAAACCCGGGC (((.(((....))).))); 64.6
CACCGGAAACGGTG (((((....))))); 60.5
GCACGGCGAAAGCCTGGC ((..(((....)))..)); 51.7
GTCCGTGGAAACACGGGC (.(((((....))))).); 63.8

Consider the additional sequence presented here.
// returns reported Tm for input GGAAACGCGAAAGCGTCC (((..(((....))))))
39.1

----------
Entries and their Tm values follow.
assay: melting temperature; fluorescence melt of hairpins on a sequencing array, two-state fit, raised by 9.35 °C to match UV melts; settings: sodium 0.088 M
Report only the number, with the unit °C understood.

CGGTCGGAAACGATACCG ((((((....)))..))); 41.2

// returns reported Tm for input GCATTATCGAAAGATTGC (((..(((....))))))
30.6

// returns reported Tm for input GAGCGGGCGAAAGCCCTC (((..(((....))))))
25.9

// returns reported Tm for input GGGTACGAAAGTATGCCC ((((((....)))..)))
37.3

// returns reported Tm for input GATCTCCGAGGAGATC ((((((....))))))
60.4

// returns reported Tm for input GGCCACGGAAACACGGCC ((((..(....)..))))
47.8

// returns reported Tm for input GCTACTGGAAACAGCAGC (((.(((....))).)))
44.7

// returns reported Tm for input GATCCTGATAGGATC ((((((...))))))
53.2

// returns reported Tm for input GGCTCCGAAAGGAGGGCC ((((((....)))..)))
52.5

// returns reported Tm for input GATCGGGGAAACCCGGTC ((.((((....)))).))
53.8

// returns reported Tm for input GGTCCCGGAAACGGAACC (((.(((....))).)))
48

// returns reported Tm for input GCACTGGAAACAGTGC ((((((....))))))
65.2

// returns reported Tm for input GCTAGAGGAAACTTTAGC ((((.((....)).))))
35

// returns reported Tm for input GCGAATGCTCGC ((((....))))
57.7

----------
assay: melting temperature; fluorescence melt of hairpins on a sequencing array, two-state fit, raised by 9.35 °C to match UV melts; conditions: sodium 0.088 M
Outcome label depends on Tm relative to 50 °C: at/above gives Condition met, below gives Condition not met.

A selection of reference data follows.
GAGCCCGAAAGGGGGCTC ((((((....)))..))); Condition met
GCGGCGACGAAAGTCCGC (((..(((....)))))); Condition met

Is it the case that GGGTGGGGAAACTCGCCC (((.(.(....).).))) has Tm reaching or exceeding 50 °C?
Condition not met

Is it the case that GCGGCTGACCGC ((((....)))) has Tm reaching or exceeding 50 °C?
Condition met

----------
assay: folding enthalpy; higher = less favourable; fluorescence melt of hairpins on a sequencing array, two-state fit; details: sodium 0.088 M
Entries and their folding enthalpy values follow.
Report only the number, with the unit kcal/mol understood.

Some sequences with known folding enthalpy results, for comparison:
GGCGCTGGAAACGGCGTC (.(((.(....).))).); -28
GAGTAGCGAAAGCTTCTC (((.(((....))).))); -26.4
GCGCCCGAAAGGGCCGC ((((((....))).))); -11.5
GCAACCGAAAGGTCTTGC ((((((....)))..))); -16.5
GCGTCTGTACGC ((((....)))); -26.2
GATCTCCAGCGAGATC ((((((....)))))); -30.6

// returns reported folding enthalpy for input GGTGTACGAAAGTATACC (((.(((....))).)))
-47.6

// returns reported folding enthalpy for input GCTGTGCGAAAGCAAGC (((.(((....))))))
-21.5

// returns reported folding enthalpy for input GCCGGGCGAAAGCTAGGC (((..((....))..)))
-34.4

// returns reported folding enthalpy for input GCGGAGAGCCGC ((((....))))
-17.4

// returns reported folding enthalpy for input GAGGACGGAAACGTCTTC ((.((((....)))).))
-17.8

// returns reported folding enthalpy for input GAGGGCGGAAACGCTCTC (((.(((....))).)))
-31.9

// returns reported folding enthalpy for input GTACGCGAAAGCGTCTAC ((((((....)))..)))
-7.82

// returns reported folding enthalpy for input GCCTCGCGAAAGCAACGC ((.(.((....)).).))
-5.96

// returns reported folding enthalpy for input GAACACGAAAGTGGTTTC ((((((....)))..)))
-14

// returns reported folding enthalpy for input GCTTCCGAAAGGATGAGC ((((((....)))..)))
-18.7

// returns reported folding enthalpy for input CGTCCGCGGAAACGCACG (((..(((....))))))
-12

// returns reported folding enthalpy for input GGAGTCGAAAGACACTCC ((((((....)))..)))
-16

// returns reported folding enthalpy for input GCGGGCGAAAGCCACCGC ((((((....)))..)))
-17.4

// returns reported folding enthalpy for input GTAGATACGAAAGTATAC (((..(((....))))))
-11.6

// returns reported folding enthalpy for input GTCTGGCCGAAAGGCGAC (((..(((....))))))
-15.7

// returns reported folding enthalpy for input GGTCACGGAAACGTAACC (((.(((....))).)))
-31.5

// returns reported folding enthalpy for input GCGAGCCCTCGC ((((....))))
-26

// returns reported folding enthalpy for input GTAGCTCGAAAGAGGTAC (((.(((....))).)))
-38

// returns reported folding enthalpy for input GCGCACTCGAAAGAGCGC (((..(((....))))))
-23.6

Source of measurements: the array DNA melting data of Ke et al. (doi:10.1101/2024.01.08.574731)
